assayed target: FXR ligand binding domain (Homo sapiens)
Sequence (Q96RI1 whole entry, the tested form may be a part): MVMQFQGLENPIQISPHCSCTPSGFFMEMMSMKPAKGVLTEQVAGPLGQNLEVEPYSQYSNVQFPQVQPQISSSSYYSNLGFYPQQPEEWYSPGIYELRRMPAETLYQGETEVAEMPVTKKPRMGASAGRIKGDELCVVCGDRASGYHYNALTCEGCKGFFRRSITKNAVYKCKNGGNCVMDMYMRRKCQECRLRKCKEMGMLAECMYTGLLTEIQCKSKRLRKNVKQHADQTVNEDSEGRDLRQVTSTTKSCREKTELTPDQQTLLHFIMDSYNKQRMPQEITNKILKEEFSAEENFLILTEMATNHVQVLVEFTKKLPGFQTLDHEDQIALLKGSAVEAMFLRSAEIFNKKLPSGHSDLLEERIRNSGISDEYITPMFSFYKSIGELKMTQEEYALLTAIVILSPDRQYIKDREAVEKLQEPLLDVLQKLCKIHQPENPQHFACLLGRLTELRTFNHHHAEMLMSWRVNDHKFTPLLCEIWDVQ
assay details: Radioligand binding assay (radioligand displacement, scintillation proximity)
condition context: GST-FXR LBD fusion protein on SPA beads, radioligand 2,N-dicyclohexyl-2-[2-(2,4 dimethoxy-phenyl)-benzoimidazol-1-yl]-acetamide, RT 30 minutes
Exercise: state measured pIC50 for each of the compounds provided.
Give bare numbers, as −log10 of the molar value.

# example entries with known answers
# compound, assayed target, pIC50
records = [
    ("O=C(NC1CCCCC1)C(c1c2c(nn1-c1ccc(Cl)cc1)CCCC2)C1CCCCC1 (centres unmarked) [Example 6]", "FXR ligand binding domain (Homo sapiens)", 6.81),
    ("O=C(NC1CCCC1)C(c1c2c(nn1-c1ccc(Cl)cc1)CCCC2)C1CCCCC1 (centres unmarked) [Example 8]", "FXR ligand binding domain (Homo sapiens)", 5.97),
    ("O=C(NC1CCCCC1)C(c1ccccc1)c1c2ccccc2nn1-c1ccccc1 (centres unmarked) [Example 3]", "FXR ligand binding domain (Homo sapiens)", 5.13),
    ("O=C(O)CCc1ccc(NC(=O)C(c2c3c(nn2-c2ccc(Cl)cc2)CCCC3)C2CCCCC2)c(F)c1 (racemic) [Example 61]", "FXR ligand binding domain (Homo sapiens)", 6.89),
    ("Fc1cc(-c2nnn[nH]2)ccc1OCC(c1c2ccccc2nn1-c1ccc(Cl)cc1)C1CCCCC1 (racemic) [Example 31]", "FXR ligand binding domain (Homo sapiens)", 7.00),
    ("O=C(Nc1ccc(-c2nnn[nH]2)cc1)C(c1c2c(nn1-c1ccc(Cl)cc1)CCCC2)C1CCCCC1 (racemic) [Example 57]", "FXR ligand binding domain (Homo sapiens)", 7.35),
    ("O=C(O)c1ccc(COC(c2c3ccccc3nn2-c2ccc(Cl)cc2)C2CCCCC2)cc1 (racemic) [Example 18]", "FXR ligand binding domain (Homo sapiens)", 6.44),
]

Continue with the compound presented below.
Inquiry: Look up pIC50: O=C(O)c1ccc(COC(c2c3c(nn2-c2ccc(Cl)cc2)CCCC3)C2CCCCC2)cc1 (racemic) [Example 28]
Reply text: 6.29
